From: PubChem BioAssay AID1259407

- Tested on: CCRIS mutagenicity, Ames/micronucleus/aberration tests
- Experiment: CCRIS mutagenicity studies
- Particulars: Test System: AMES SALMONELLA TYPHIMURIUM; Strain/Indicator: TA100; Metabolic Activation: RAT, LIVER, S-9, AROCLOR 1254; Method: STANDARD PLATE
Active and inactive are the calls of the source. How the calls were made is not given here.
Respond with a class label; see active, inactive

Answered examples (5):
{"columns": ["Compound string", "Class name"],
 "data": [
  ["CSCC[C@H](NC(=O)COc1ccc(Cl)cc1Cl)C(=O)O", "inactive"],
  ["N.N.O=C([O-])C1(C(=O)[O-])CCC1.[Pt+4]", "inactive"],
  ["ClC(Cl)(Cl)Br", "inactive"],
  ["CCCOC(=O)c1cc(O)c(O)c(O)c1", "inactive"],
  ["O=[N+]([O-])C1=Cc2cccc3c2c1cc1ccc2ccccc2c13", "active"]
]}

Incoming: Please state the recorded outcome for this molecule: ClC(Cl)C(Cl)Cl
Outgoing: active

Incoming: Again, but for CN(Cc1ccccc1)N=O
Outgoing: active

Incoming: Try the molecule COc1ccc(CN(CCN(C)C)c2ccccn2)cc1
Outgoing: inactive

Incoming: Proceed to CC(C)(C)C1=CC(=O)C=CC1=O
Outgoing: inactive

Incoming: And for CN(C)c1ccc2cc3ccc(N(C)C)cc3nc2c1 ?
Outgoing: active

Incoming: Same for CCN(CC)c1cc(NC(C)=O)c(N=Nc2c(Br)cc([N+](=O)[O-])cc2[N+](=O)[O-])cc1OC
Outgoing: active

Incoming: Lookup O=C/C=C/c1ccc([N+](=O)[O-])cc1
Outgoing: active

Incoming: Quick one: Cl/C=C/Cl
Outgoing: active

###

- Test system: CCRIS mutagenicity, Ames/micronucleus/aberration tests
- Experiment: CCRIS mutagenicity studies
- Particulars: Test System: AMES SALMONELLA TYPHIMURIUM; Strain/Indicator: TA97; Metabolic Activation: NONE; Method: STANDARD PLATE
Active and inactive are the calls of the source. No rule for the calls is given here.
I would appreciate it if you answered using one of these outcomes: active, inactive

Before answering, review these 3 worked examples.
{"columns": ["Compound string", "Class name"],
 "data": [
  ["Cn1cnc2c(NO)ncnc21", "inactive"],
  ["CC[C@@]1(O)C[C@H](O[C@H]2C[C@H](N(C)C)[C@H](O[C@H]3C[C@H](O)[C@H](O[C@H]4CCC(=O)[C@H](C)O4)[C@H](C)O3)[C@H](C)O2)c2c(cc3c(c2O)C(=O)c2c(O)cccc2C3=O)[C@H]1C(=O)OC", "inactive"],
  ["O=S(=O)(c1cc(Cl)cc(Cl)c1O)c1cc(Cl)cc(Cl)c1O", "inactive"]
]}

Incoming: Could you please tell me the result logged for CCOC(=O)c1[nH]c2ccccc2c1N=Cc1ccc(NC(C)=O)cc1 in this assay?
Outgoing: active

###

- System: CCRIS mutagenicity, Ames/micronucleus/aberration tests
- Experiment: CCRIS mutagenicity studies
- Particulars: Test System: AMES SALMONELLA TYPHIMURIUM; Strain/Indicator: TA1535; Metabolic Activation: RAT, LIVER, S-9, AROCLOR 1254; Method: STANDARD PLATE
Active and inactive are the calls of the source. The rule behind the calls is not given here.
A correct response names exactly one class from active, inactive

{"columns": ["Compound", "Class name"],
 "data": [
  ["Nc1cccc2c1C(=O)c1cccc(N)c1C2=O", "inactive"],
  ["CN(C)c1ccc([C@H]2C[C@]3(C)[C@@H](CC[C@]3(O)CCCO)[C@@H]3CCC4=CC(=O)CCC4=C32)cc1", "inactive"],
  ["CCCCCON=O", "active"]
]}

Incoming: # fetch the recorded call for CCCCCCCCCCCCCCCC(=O)OC[C@H](O)[C@H]1OC(=O)C(O)=C1O here
Outgoing: inactive
